Molecular target: N-type Ca2+ channels in IMR-32 cells (Homo sapiens, UniProt Q00975)
Construct: host or cells: IMR-32 cells, differentiated with dibutyryl cAMP and bromodeoxyuridine
Sequence (Q00975 whole entry): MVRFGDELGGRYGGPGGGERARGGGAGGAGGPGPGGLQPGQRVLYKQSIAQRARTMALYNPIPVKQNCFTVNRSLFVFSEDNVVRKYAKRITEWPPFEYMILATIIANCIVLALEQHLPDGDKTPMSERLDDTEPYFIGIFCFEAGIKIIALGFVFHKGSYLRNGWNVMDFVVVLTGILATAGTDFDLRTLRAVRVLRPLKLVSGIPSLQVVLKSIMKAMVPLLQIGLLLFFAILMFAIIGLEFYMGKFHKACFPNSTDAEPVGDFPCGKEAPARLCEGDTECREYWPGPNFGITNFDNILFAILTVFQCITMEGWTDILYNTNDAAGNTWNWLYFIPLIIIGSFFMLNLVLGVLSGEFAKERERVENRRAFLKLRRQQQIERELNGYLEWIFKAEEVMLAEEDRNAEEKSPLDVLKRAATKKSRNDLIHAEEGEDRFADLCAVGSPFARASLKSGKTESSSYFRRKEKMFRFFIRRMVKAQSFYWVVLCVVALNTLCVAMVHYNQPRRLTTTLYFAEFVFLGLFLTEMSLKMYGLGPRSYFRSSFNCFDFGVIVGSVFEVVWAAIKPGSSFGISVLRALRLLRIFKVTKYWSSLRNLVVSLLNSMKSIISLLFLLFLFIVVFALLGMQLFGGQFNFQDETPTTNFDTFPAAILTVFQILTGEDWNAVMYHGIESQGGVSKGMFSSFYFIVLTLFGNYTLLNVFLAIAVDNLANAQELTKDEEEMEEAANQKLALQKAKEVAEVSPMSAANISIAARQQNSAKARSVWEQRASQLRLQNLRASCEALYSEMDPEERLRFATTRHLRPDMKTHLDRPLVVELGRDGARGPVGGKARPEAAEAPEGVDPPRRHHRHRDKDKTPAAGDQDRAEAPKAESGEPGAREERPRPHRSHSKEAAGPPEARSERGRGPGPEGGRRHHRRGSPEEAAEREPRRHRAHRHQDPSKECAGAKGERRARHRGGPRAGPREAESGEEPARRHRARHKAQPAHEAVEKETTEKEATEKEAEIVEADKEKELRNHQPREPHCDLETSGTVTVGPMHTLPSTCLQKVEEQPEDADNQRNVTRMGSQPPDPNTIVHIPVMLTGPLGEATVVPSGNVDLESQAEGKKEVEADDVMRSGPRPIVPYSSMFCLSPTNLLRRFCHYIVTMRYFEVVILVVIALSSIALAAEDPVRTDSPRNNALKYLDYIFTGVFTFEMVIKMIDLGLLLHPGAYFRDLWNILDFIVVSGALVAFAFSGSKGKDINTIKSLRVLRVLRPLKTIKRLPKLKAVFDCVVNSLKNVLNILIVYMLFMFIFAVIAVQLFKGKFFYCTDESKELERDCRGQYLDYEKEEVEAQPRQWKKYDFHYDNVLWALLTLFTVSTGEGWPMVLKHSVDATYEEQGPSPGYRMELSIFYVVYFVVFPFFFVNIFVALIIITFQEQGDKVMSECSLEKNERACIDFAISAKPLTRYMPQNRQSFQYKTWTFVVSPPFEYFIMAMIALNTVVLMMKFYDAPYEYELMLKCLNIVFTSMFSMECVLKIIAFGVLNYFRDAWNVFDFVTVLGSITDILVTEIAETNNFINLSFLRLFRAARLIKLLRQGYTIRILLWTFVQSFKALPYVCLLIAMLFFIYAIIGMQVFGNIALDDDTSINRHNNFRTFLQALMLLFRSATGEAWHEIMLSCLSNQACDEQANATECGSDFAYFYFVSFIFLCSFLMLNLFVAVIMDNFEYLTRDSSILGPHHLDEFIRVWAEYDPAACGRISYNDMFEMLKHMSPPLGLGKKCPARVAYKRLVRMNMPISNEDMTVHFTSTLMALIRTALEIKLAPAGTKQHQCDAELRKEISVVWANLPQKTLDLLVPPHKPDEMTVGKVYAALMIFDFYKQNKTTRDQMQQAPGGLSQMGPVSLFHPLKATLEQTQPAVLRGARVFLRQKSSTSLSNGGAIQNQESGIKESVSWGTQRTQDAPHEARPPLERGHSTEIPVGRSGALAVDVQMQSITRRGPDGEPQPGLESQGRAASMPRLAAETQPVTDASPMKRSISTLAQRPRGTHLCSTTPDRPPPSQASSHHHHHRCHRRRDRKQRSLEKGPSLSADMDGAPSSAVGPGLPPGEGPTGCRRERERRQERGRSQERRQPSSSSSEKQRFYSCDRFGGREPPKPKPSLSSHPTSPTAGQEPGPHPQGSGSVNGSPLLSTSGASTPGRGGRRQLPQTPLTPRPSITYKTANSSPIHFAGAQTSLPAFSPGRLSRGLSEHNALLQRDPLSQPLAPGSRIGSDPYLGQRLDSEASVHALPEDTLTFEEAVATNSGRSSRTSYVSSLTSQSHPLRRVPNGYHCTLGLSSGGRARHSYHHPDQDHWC
Sequence (P54289 25-956 partner limits assumed): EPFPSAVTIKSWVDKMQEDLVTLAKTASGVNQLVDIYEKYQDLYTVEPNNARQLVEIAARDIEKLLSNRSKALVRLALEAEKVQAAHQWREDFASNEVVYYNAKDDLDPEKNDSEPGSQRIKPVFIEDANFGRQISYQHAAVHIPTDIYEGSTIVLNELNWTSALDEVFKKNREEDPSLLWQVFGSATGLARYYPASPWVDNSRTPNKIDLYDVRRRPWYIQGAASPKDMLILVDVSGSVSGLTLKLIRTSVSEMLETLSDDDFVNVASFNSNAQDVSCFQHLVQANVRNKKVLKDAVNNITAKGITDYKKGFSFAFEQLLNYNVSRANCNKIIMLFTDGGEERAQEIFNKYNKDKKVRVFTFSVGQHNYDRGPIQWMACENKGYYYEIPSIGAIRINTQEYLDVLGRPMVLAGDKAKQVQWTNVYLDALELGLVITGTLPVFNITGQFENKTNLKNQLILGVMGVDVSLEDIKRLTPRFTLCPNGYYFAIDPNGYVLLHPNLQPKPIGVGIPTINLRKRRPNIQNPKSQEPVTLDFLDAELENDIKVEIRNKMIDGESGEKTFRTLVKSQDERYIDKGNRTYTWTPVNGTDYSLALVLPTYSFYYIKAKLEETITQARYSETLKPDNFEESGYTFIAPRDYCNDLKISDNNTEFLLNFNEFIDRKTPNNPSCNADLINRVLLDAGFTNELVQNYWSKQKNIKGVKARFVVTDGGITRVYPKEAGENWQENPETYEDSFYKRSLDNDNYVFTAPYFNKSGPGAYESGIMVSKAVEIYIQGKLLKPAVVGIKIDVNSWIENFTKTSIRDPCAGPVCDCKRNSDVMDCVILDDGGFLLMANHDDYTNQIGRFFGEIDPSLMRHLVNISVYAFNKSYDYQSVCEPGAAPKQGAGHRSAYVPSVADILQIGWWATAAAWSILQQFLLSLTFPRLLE
Sequence (P54289 957-1103 partner limits assumed): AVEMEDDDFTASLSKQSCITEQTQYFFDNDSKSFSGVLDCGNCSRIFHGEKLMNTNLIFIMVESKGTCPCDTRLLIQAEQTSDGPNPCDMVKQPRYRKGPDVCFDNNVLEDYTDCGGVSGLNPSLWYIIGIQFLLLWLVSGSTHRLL
Sequence (P54284 whole entry partner): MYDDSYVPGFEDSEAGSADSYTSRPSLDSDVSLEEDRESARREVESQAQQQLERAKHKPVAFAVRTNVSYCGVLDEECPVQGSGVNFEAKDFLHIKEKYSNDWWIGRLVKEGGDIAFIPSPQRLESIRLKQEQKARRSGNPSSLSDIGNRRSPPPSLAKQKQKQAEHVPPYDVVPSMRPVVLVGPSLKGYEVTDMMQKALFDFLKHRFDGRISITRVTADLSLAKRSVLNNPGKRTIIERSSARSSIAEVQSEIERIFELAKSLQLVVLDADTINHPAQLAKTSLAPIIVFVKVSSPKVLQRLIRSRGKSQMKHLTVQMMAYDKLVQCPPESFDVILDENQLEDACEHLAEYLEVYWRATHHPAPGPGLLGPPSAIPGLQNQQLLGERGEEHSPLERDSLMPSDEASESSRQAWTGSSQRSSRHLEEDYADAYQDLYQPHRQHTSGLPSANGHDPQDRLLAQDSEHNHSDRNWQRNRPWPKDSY
Experiment: Inhibition of N-type calcium flux in IMR-32 cells (Indo-1 fluorescence, nitrendipine present)
Format: cell-based
Settings: IMR-32
Categorized via inhibition at 1 µM: category 1: < 40%; category 2: ≥ 40% and < 60%; category 3: ≥ 60%

Example entries begin here.
# Molecule, Study Target, Qualitative Label
data = [
    ("CC(C)C[C@H](NS(=O)(=O)c1ccc(C(C)C)cc1)C(=O)N[C@@H](Cc1ccc(OCc2ccccc2)cc1)C(=O)OC(C)(C)C", "N-type Ca2+ channels in IMR-32 cells (Homo sapiens, UniProt Q00975)", "category 3"),
    ("CC(C)C[C@H](NC(=O)N1CCCCCC1)C(=O)N[C@@H](Cc1ccc(OCc2ccccc2)cc1)C(=O)NCCc1ccccn1", "N-type Ca2+ channels in IMR-32 cells (Homo sapiens, UniProt Q00975)", "category 2"),
    ("CC(C)C[C@H](NC(=O)N1CCCCCC1)C(=O)N[C@@H](Cc1ccc(OCc2ccccc2)cc1)C(=O)NCCN1CCCCC1", "N-type Ca2+ channels in IMR-32 cells (Homo sapiens, UniProt Q00975)", "category 3"),
    ("CC(C)C[C@H](NC(=O)N1CCCCCC1)C(=O)N[C@@H](Cc1ccc(OCc2ccccc2)cc1)C(=O)NCCCn1ccnc1", "N-type Ca2+ channels in IMR-32 cells (Homo sapiens, UniProt Q00975)", "category 2"),
    ("CC(C)C[C@H](NC(=O)N1CCCCCC1)C(=O)N[C@@H](Cc1ccc(OCc2ccccc2)cc1)C(=O)N1CCN(CCO)CC1", "N-type Ca2+ channels in IMR-32 cells (Homo sapiens, UniProt Q00975)", "category 1"),
    ("CC(C)C[C@H](NC(=O)N1CCCCCC1)C(=O)N[C@@H](Cc1ccc(C#CC2(O)CCCCC2)cc1)C(=O)NC(C)(C)C", "N-type Ca2+ channels in IMR-32 cells (Homo sapiens, UniProt Q00975)", "category 1"),
    ("CC(C)CC(NC(=O)N1CCCCCC1)C(=O)NC(Cc1ccc(OCc2ccccc2)cc1)C(=O)N1CCCC1CNc1ccccc1 (centres unmarked)", "N-type Ca2+ channels in IMR-32 cells (Homo sapiens, UniProt Q00975)", "category 3"),
    ("CC(C)C[C@H](NC(=O)N1CCCCCC1)C(=O)N[C@@H](Cc1ccc(OCc2ccccc2)cc1)C(=O)N1CCCCC1", "N-type Ca2+ channels in IMR-32 cells (Homo sapiens, UniProt Q00975)", "category 2"),
    ("CCC(COC)NC(=O)C(Cc1ccc(OCc2ccccc2)cc1)NC(=O)C(CC(C)C)NC(=O)N1CCCCCC1 (centres unmarked)", "N-type Ca2+ channels in IMR-32 cells (Homo sapiens, UniProt Q00975)", "category 2"),
    ("CC(C)C[C@@H](NC(=O)N1CCCCCC1)C(=O)N[C@@H](Cc1ccc(OCc2ccccc2)cc1)C(=O)OC(C)(C)C", "N-type Ca2+ channels in IMR-32 cells (Homo sapiens, UniProt Q00975)", "category 2"),
]

input: Band of CC(C)CC(NC(=O)N1CCCCCC1)C(=O)NC(Cc1ccc(OCc2ccccc2)cc1)C(=O)N1CCCC(O)C1 (centres unmarked) ?
output: category 1

input: Band of CC(C)C[C@H](NS(=O)(=O)c1ccc(Br)cc1)C(=O)N[C@@H](Cc1ccc(OCc2ccccc2)cc1)C(=O)OC(C)(C)C ?
output: category 2

input: Band of CC(C)C[C@H](NC(=O)N1CCCCCC1)C(=O)N[C@@H](Cc1ccc(OCc2ccccc2)cc1)C(=O)N1CCc2ccccc2C1 ?
output: category 1

input: Band of CC(C)CC(NC(=O)N1CCCCCC1)C(=O)NC(Cc1ccc(OCc2ccccc2)cc1)C(=O)NC(C)CNCC(C)N (centres unmarked) ?
output: category 1

input: Band of CC(C)C[C@H](NC(=O)N1CCN(c2ccccc2)CC1)C(=O)N[C@@H](Cc1ccc(OCc2ccccc2)cc1)C(=O)OC(C)(C)C ?
output: category 2

input: Band of CC(C)C[C@@H](NC(=O)N1CCCCCC1)C(=O)N[C@H](Cc1ccc(OCc2ccccc2)cc1)C(=O)OC(C)(C)C ?
output: category 2

input: Band of CC(C)C[C@H](NC(=O)N1CCCCCC1)C(=O)N[C@](C)(Cc1ccc(OCc2ccccc2)cc1)C(=O)OC(C)(C)C [Example 11B] ?
output: category 1

input: Band of CC(C)C[C@H](NC(=O)N1CCCCCC1)C(=O)N[C@@H](Cc1ccc(OCc2ccc(C#N)cc2)cc1)C(=O)OC(C)(C)C ?
output: category 2

input: Band of Cc1ccc(COc2ccc(C[C@H](NC(=O)[C@H](Cc3ccccc3)NC(=O)N3CCCCCC3)C(=O)OC(C)(C)C)cc2)cc1 ?
output: category 3

input: Band of CC(C)C[C@H](NC(=O)N1CCCCCC1)C(=O)N[C@@H](Cc1ccc(C=Cc2ccccc2)cc1)C(=O)NC(C)(C)C ?
output: category 1

input: Band of CC(C)C[C@H](NC(=O)N1CCCCCC1)C(=O)N[C@@H](Cc1ccc(OCc2ccccn2)cc1)C(=O)OC(C)(C)C ?
output: category 1

input: Band of Cc1noc(C)c1S(=O)(=O)N[C@@H](CC(C)C)C(=O)N[C@@H](Cc1ccc(OCc2ccccc2)cc1)C(=O)OC(C)(C)C ?
output: category 2

Where do these numbers come from? They come from patent US6423689B1.
